Recorded measurements of Papp, one per entry
# Experimental Details: Permeability across human Caco-2 cells
# Format: ADME, cell-based
Numbered stars: 1 amine (or outer) side, 2 acyl side, 3 side chain; on linkers, the order of the positions; unused ones are H or OH. Bridge positions count the residues as written; N and C are the ends. Square brackets hold non-standard residues; d marks the D form. Peptide text beside a SMILES is read from it. NGly(3-aminopropyl) = O=C(CN(CCCN[*:3])[*:1])[*:2]; N(2-Aminoethyl)Gly = O=C(CN(CCN[*:3])[*:1])[*:2]; Adipoyl = O=C(CCCCC(=O)[*:2])[*:1]; Suc = O=C(CCC(=O)[*:2])[*:1]
Your answer is read as ×10⁻⁶ cm/s, so omit the unit and give the number.

>>> measured_result("N=C(N)NCCC[C@@H]1NC(=O)[C@@H](Cc2ccccc2)NC(=O)[C@H](Cc2ccccc2)NC(=O)CCCCC(=O)NCCCN(CC(N)=O)C(=O)[C@H](Cc2c[nH]c3ccccc23)NC1=O (F[dF]RW[NGly(3-aminopropyl)]-NH2; linker N-5 via Adipoyl)")
19
>>> measured_result("N=C(N)NCCC[C@@H]1NC(=O)[C@@H](Cc2ccccc2)NC(=O)[C@H](Cc2ccccc2)NC(=O)CCCC(=O)NCCN(CC(N)=O)C(=O)[C@H](Cc2c[nH]c3ccccc23)NC1=O")
21
>>> measured_result("N=C(N)NCCC[C@H](NC(=O)[C@H](Cc1c[nH]c2ccccc12)NC(=O)CN)C(=O)N[C@H](Cc1ccccc1)C(=O)N[C@@H](Cc1ccccc1)C(=O)O")
12
>>> measured_result("N=C(N)NCCC[C@@H]1NC(=O)[C@@H](Cc2ccccc2)NC(=O)[C@H](Cc2ccccc2)NC(=O)CCC(=O)NCCCN(CC(N)=O)C(=O)[C@H](Cc2c[nH]c3ccccc23)NC1=O (F[dF]RW[NGly(3-aminopropyl)]-NH2; linker N-5 via Suc)")
18.8
>>> measured_result("CC(C)NCC(O)COc1cccc2ccccc12 (configuration not stated)")
25
>>> measured_result("N=C(N)NCCC[C@@H]1NC(=O)[C@@H](Cc2ccccc2)NC(=O)[C@H](Cc2ccccc2)NC(=O)CCC(=O)NCCN(CC(N)=O)C(=O)[C@H](Cc2c[nH]c3ccccc23)NC1=O (F[dF]RW[N(2-Aminoethyl)Gly]-NH2; linker N-5 via Suc)")
17.8

Value of Papp reported for the compound OC[C@@H](O)[C@@H](O)[C@H](O)[C@H](O)CO is 2.05

====

# Experimental Details: Cmax in Wistar rat plasma at 1 mg/kg, iv
# Format: ADME, organism-based
# Design: dose 1 mg/kg, route intravenous
Numbered stars: 1 amine (or outer) side, 2 acyl side, 3 side chain; on linkers, the order of the positions; unused ones are H or OH. Bridge positions count the residues as written; N and C are the ends. Square brackets hold non-standard residues; d marks the D form. Peptide text beside a SMILES is read from it. N(2-Aminoethyl)Gly = O=C(CN(CCN[*:3])[*:1])[*:2]; Suc = O=C(CCC(=O)[*:2])[*:1]
Readout Kind: Cmax (ng/mL)
Your answer is read as ng/mL, so omit the unit and give the number.

Value of Cmax reported for the compound N=C(N)NCCC[C@@H]1NC(=O)[C@@H](Cc2ccccc2)NC(=O)[C@H](Cc2ccccc2)NC(=O)CCC(=O)NCCN(CC(N)=O)C(=O)[C@H](Cc2c[nH]c3ccccc23)NC1=O (F[dF]RW[N(2-Aminoethyl)Gly]-NH2; linker N-5 via Suc) is 977
